# test_method_notes: in vitro
# Type: cell-based
measure_name: EC50 (µg/mL)

Solved entries:
compound: N=C(N)NCCCCOc1cc(OCCCCNC(=N)N)c(C(F)(F)F)cc1NC(=O)Nc1ccc(NC(=O)Nc2cc(C(F)(F)F)c(OCCCCNC(=N)N)cc2OCCCCNC(=N)N)cc1
unit_descriptor: µg/mL
EC50: 7
--
compound: CC(=O)NCCSc1c(NC(=O)CCCCNC(=N)N)cc(Br)cc1NC(=O)c1cc(C(=O)Nc2cc(Br)cc(NC(=O)CCCCNC(=N)N)c2SCCNC(C)=O)ncn1
unit_descriptor: µg/mL
EC50: 210
--
compound: FC(F)(F)c1cc(NC2CCNCC2)ccc1Oc1ccc(Oc2ccc(NC3CCCNC3)cc2C(F)(F)F)cc1 (centres unmarked)
unit_descriptor: µg/mL
EC50: 16
--
compound: N=C(N)NCCCCC(=O)Nc1ccc(Oc2cccc(Oc3ccc(NC(=O)CCCCNC(=N)N)cc3)c2)cc1
unit_descriptor: µg/mL
EC50: 299

a. NCCCOc1cccc(-n2cc(-c3cccc(-c4cn(-c5cccc(OCCCN)c5)nn4)c3)nn2)c1
b. NCCCOc1c(-c2cccc(C(F)(F)F)c2)cc(-c2cccc(C(F)(F)F)c2)c(OCCCN)c1-c1cccc(C(F)(F)F)c1
c. COc1ccc(C(=O)Nc2cc(C(F)(F)F)cc(NC(=O)c3cc(C(=O)Nc4cc(C(F)(F)F)cc(N)c4SCCN)ncn3)c2SCCN)cc1OC
d. NCCN1CCc2ccc(NC(=O)c3cc(C(=O)Nc4ccc5c(c4)CCN(CCN)CC5)ncn3)cc2CC1
e. NCCC#Cc1cncc(-c2cccc(-c3cncc(C#CCCN)c3)c2)c1
Please list these compounds in decreasing order of EC50. Answer format: the labels, ordered as requested.
e, d, a, c, b
(e: 538 µg/mL, d: 123 µg/mL, a: 63 µg/mL, c: 14 µg/mL, b: 6 µg/mL)

----------
# test_method_notes: Cytotoxicity against HepG2 cells
# Format: cell-based
# condition_info: human, HepG2 cells; read-out: Cytotoxicity HepG2 EC50
EC50: recorded values
Answer format: numeric, µM implied, no suffix.

chem_smiles: N=C(N)NCCc1cccc(-c2cncc(-c3cccc(CCNC(=N)N)c3)c2)c1
EC50 (µM): 905

If you can, please state the reported EC50 value of N=C(N)NCCSc1ccc(NC(=O)Nc2cccc(CCNC(=N)N)c2)cc1C(F)(F)F .
702

Similarly, O=C(Nc1ccc(O[C@H]2CCNC2)cc1)c1cc(C(=O)Nc2ccc(O[C@H]3CCNC3)cc2)ncn1 ?
819

Similarly, N=C(N)NCCN1CCc2ccc(NC(=O)c3cc(C(=O)Nc4ccc5c(c4)CCN(CCNC(=N)N)CC5)ncn3)cc2CC1 ?
157

Similarly, Fc1cc(NC2CCNCC2)cc(Oc2ccc(Oc3cc(F)cc(NC4CCNCC4)c3)cc2)c1 ?
78

Similarly, N=C(N)NCCCCN1CCc2ccc(NC(=O)c3cc(C(=O)Nc4ccc5c(c4)CCN(CCCCNC(=N)N)CC5)ncn3)cc2CC1 ?
408

Similarly, N=C(N)N1CCN(c2ccc(-c3ccc(-c4ccc(N5CCN(C(=N)N)CC5)cc4)s3)cc2)CC1 ?
606

Similarly, COc1ccc(C(=O)Nc2cc(C(F)(F)F)cc(NC(=O)c3cc(C(=O)Nc4cc(C(F)(F)F)cc(N)c4SCCN)ncn3)c2SCCN)cc1OC ?
545

Similarly, CC(=O)Nc1cc(C(F)(F)F)cc(NC(=O)c2cc(C(=O)Nc3cc(C(F)(F)F)cc(N)c3SCCN)ncn2)c1SCCN ?
45

Similarly, N=C(N)NCCCCOc1cc(OCCCCNC(=N)N)c(C(F)(F)F)cc1NC(=O)Nc1ccc(NC(=O)Nc2cc(C(F)(F)F)c(OCCCCNC(=N)N)cc2OCCCCNC(=N)N)cc1 ?
60

Similarly, N=C(N)NCCC#Cc1cncc(-c2cccc(-c3cncc(C#CCCNC(=N)N)c3)c2)c1 ?
422

Similarly, O=S(=O)(c1ccc(Oc2cc(NC3CCNCC3)cc(C(F)(F)F)c2)cc1)c1ccc(Oc2cc(NC3CCNCC3)cc(C(F)(F)F)c2)cc1 ?
98

Similarly, Cn1c(-c2ccc(N3CCN(C(=N)N)CC3)cc2)cnc1-c1ccc(N2CCN(C(=N)N)CC2)cc1 ?
932

Similarly, N=C(N)NCCCc1cccc(-c2cncc(-c3ccc(-c4cncc(-c5cccc(CCCNC(=N)N)c5)c4)s3)c2)c1 ?
88

Similarly, N=C(N)NCCCc1cc(SCCN)c(NC(=O)c2cc(C(=O)Nc3cc(C(F)(F)F)c(CCCNC(=N)N)cc3SCCN)ncn2)cc1C(F)(F)F ?
95

Similarly, NCCCc1cccc(-c2cncc(-c3ccc(-c4cncc(-c5cccc(CCCN)c5)c4)s3)c2)c1 ?
56

Similarly, NCCCOc1c(-c2cccc(C(F)(F)F)c2)cc(-c2cccc(C(F)(F)F)c2)c(OCCCN)c1-c1cccc(C(F)(F)F)c1 ?
28
